Sourced from patent US20060025566A1

molecular target: human growth hormone secretagogue receptor (hGHS-R1a) (Homo sapiens, UniProt Q92847); construct: purchased PerkinElmer BioSignal #RBHGHSM, lot#1887; host or cells: HEK-293, stably transfected (membranes); test: Competitive radioligand binding assay (ghrelin receptor), [125I]-ghrelin displacement on GHS-R/HEK 293 membranes; settings: binding activity, standard method; TFA salts unless otherwise noted; read-out: Ki
Sequence (Q92847 whole entry): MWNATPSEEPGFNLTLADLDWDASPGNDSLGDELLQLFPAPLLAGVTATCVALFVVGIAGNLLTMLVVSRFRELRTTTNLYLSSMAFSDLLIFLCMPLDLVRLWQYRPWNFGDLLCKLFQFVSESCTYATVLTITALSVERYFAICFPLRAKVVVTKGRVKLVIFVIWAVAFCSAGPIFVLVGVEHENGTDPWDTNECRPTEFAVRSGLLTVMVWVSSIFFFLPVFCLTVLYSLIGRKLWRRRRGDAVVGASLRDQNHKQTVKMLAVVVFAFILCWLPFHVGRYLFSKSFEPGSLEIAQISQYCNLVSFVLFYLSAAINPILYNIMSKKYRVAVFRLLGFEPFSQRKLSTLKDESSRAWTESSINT
pKi: −log10 of the molar value.

{"molecule": "CC(C)[C@@H]1NCCOc2ccccc2CCCNC(=O)[C@H](Cc2ccccc2)NC(=O)C2(CCCC2)NC1=O", "pKi": "6.00 to 7.00"}
{"molecule": "CC(C)C[C@@H]1NCCOc2ccccc2C=CCNC(=O)[C@H](Cc2ccccc2Cl)NC(=O)C2(CCCC2)NC1=O (stereo in doubt)", "pKi": "8.00 to 10.00"}
{"molecule": "CC(C)C1NCCOc2ccccc2C=CCNC(=O)C(Cc2ccccc2)NC(=O)C(C)N(C)C1=O (centres unmarked)", "pKi": "6.00 to 7.00"}
{"molecule": "CC[C@H](C)[C@@H]1NCCOc2ccccc2CCCNC(=O)[C@@H](Cc2ccc3ccccc3c2)NC(=O)[C@@H](C)N(C)C1=O", "pKi": "8.00 to 10.00"}
{"molecule": "CCC(C)C1NCc2ccccc2CCCCNC(=O)C(Cc2ccccc2)NC(=O)C(C)N(C)C1=O (single isomer, unassigned) [194a]", "pKi": "6.00 to 7.00"}
{"molecule": "CCC(C)C1NCCOc2ccccc2CCCNC(=O)C(Cc2ccc(OC)cc2)NC(=O)C(C)N(C)C1=O (centres unmarked)", "pKi": "8.00 to 10.00"}
{"molecule": "C[C@@H]1C(=O)N[C@H](Cc2ccccc2)C(=O)NCCCc2ccccc2OCCN[C@@H](C2CC2)C(=O)N1C", "pKi": "8.00 to 10.00"}
{"molecule": "O=C1NC/C=C/c2ccccc2OCCN[C@@H](C2CC2)C(=O)NC2(CCCC2)C(=O)N[C@H]1Cc1cccc(Cl)c1", "pKi": "7.00 to 8.00"}
{"molecule": "CC1C(=O)NC(Cc2ccc(F)cc2)C(=O)NCCCc2ncccc2OCCNC(C2CC2)C(=O)N1C (single isomer, unassigned) [306a]", "pKi": "7.00 to 8.00"}
{"molecule": "C[C@@H]1C(=O)N[C@H](Cc2ccccc2)C(=O)NCCCc2ccccc2OCCN2CCCC[C@H]2C(=O)N1C", "pKi": "7.00 to 8.00"}
{"molecule": "CC(C)C[C@@H]1NCCOc2ccccc2C=CCNC(=O)[C@H](Cc2ccc(F)cc2)NC(=O)C2(CCCC2)NC1=O (stereo in doubt)", "pKi": "7.00 to 8.00"}
{"molecule": "CC[C@H](C)[C@@H]1NCCOc2ccccc2CCCNC(=O)[C@@H](Cc2cccc3ccccc23)NC(=O)[C@@H](C)N(C)C1=O", "pKi": "8.00 to 10.00"}
{"molecule": "CCCC1NCCOc2ccccc2CCCNC(=O)C(Cc2ccccc2)NC(=O)C(C)N(C)C1=O (centres unmarked)", "pKi": "7.00 to 8.00"}
{"molecule": "CC[C@H](C)[C@@H]1NCCOc2ccccc2CCCNC(=O)[C@@H](Cc2cccc(Cl)c2)NC(=O)[C@@H](C)N(C)C1=O", "pKi": "8.00 to 10.00"}

---

target: human growth hormone secretagogue receptor (hGHS-R1a) (Homo sapiens, UniProt Q92847); construct: purchased PerkinElmer BioSignal #RBHGHSM, lot#1887; host or cells: HEK-293, stably transfected (membranes); assay: Competitive radioligand binding assay (ghrelin receptor), [125I]-ghrelin displacement on GHS-R/HEK 293 membranes; conditions: Table 3E, human ghrelin receptor; read-out: Ki
pKi: −log10 of the molar value.
pKi for assorted compounds
measured_parameter: pKi

{"compound": "CCC(C)[C@@H]1NCCOc2ccccc2CCCNC(=O)[C@@H](Cc2ccccc2)N2CC[C@@H](C2=O)N(C)C1=O (stereo partly drawn)", "experimental_value": "6.00 to 7.00"}
{"compound": "CCC(C)C1NCCOc2ccccc2CCCNC(=O)C(Cc2ccccc2)N2CCC(C2=O)N(C)C1=O (stereo not drawn) [230 diastereomer]", "experimental_value": "5.00 to 6.00"}
{"compound": "CCC[C@@H]1NCCOc2ccccc2CCCNC(=O)[C@@H](Cc2ccccc2)NC(=O)[C@@H]2CCCN2C1=O", "experimental_value": "5.00 to 6.00"}
{"compound": "C[C@@H]1C(=O)N[C@H](Cc2ccccc2)C(=O)NCCCc2ccccc2OCCN2CCCC[C@H]2C(=O)N1C [drawing 1187]", "experimental_value": "7.00 to 8.00"}
{"compound": "CCC[C@@H]1NCCOc2ccccc2CCCNC(=O)[C@H](Cc2ccccc2)NC(=O)[C@H]2CCCN2C1=O", "experimental_value": "5.00 to 6.00"}
{"compound": "C[C@@H]1C(=O)N[C@H](Cc2ccccc2)C(=O)NCCCc2ccccc2OCCN2CCC[C@H]2C(=O)N1C", "experimental_value": "6.00 to 7.00"}
{"compound": "CCC(C)[C@@H]1NCCOc2ccccc2CCCNC(=O)[C@@H](Cc2ccccc2)NC(=O)[C@H]2C[C@H](O)CN2C1=O (stereo partly drawn)", "experimental_value": "< 5.00"}
{"compound": "CCC[C@@H]1NCCOc2ccccc2CCCNC(=O)[C@@H](Cc2ccccc2)NC(=O)[C@H]2CCCN2C1=O", "experimental_value": "6.00 to 7.00"}
{"compound": "CCC[C@@H]1NCCOc2ccccc2CCCNC(=O)[C@H](Cc2ccccc2)NC(=O)[C@@H]2CCCN2C1=O", "experimental_value": "5.00 to 6.00"}
{"compound": "CCC(C)[C@@H]1NCCOc2ccccc2CCCNC(=O)[C@@H](Cc2ccccc2)N2CC[C@@H](NC1=O)C2=O (stereo partly drawn)", "experimental_value": "6.00 to 7.00"}
{"compound": "CCC(C)[C@@H]1NCCOc2ccccc2CCCNC(=O)[C@@H](Cc2ccccc2)N2CC[C@H](C2=O)N(C)C1=O (stereo partly drawn)", "experimental_value": "7.00 to 8.00"}
{"compound": "CCC(C)[C@@H]1NCCOc2ccccc2CCCNC(=O)[C@@H](Cc2ccccc2)N2CC[C@H](NC1=O)C2=O (stereo partly drawn)", "experimental_value": "< 5.00"}

---

Overview of reported Ki across a group of molecules:
molecular target: human growth hormone secretagogue receptor (hGHS-R1a) (Homo sapiens, UniProt Q92847); construct: purchased PerkinElmer BioSignal #RBHGHSM, lot#1887; host or cells: HEK-293, stably transfected (membranes); experiment: Competitive radioligand binding assay (ghrelin receptor), [125I]-ghrelin displacement on GHS-R/HEK 293 membranes; details: [125I]-ghrelin competition, GHS-R/HEK 293 membranes; Table 3A; read-out: Binding Activity at the Human Ghrelin Receptor

{"molecule": "CC[C@H]1NC(=O)[C@@H](C)N(C)C(=O)[C@H]([C@@H](C)CC)NCCOc2ccccc2CCCNC1=O", "Ki": "> 10000 nM"}
{"molecule": "CCC(C)C1NC(=O)C2(CCCC2)NC(=O)C(CC(C)C)NCCOc2ccccc2C=CCNC1=O (stereo not drawn) [compound 167]", "Ki": "> 10000 nM"}
{"molecule": "CC(C)C[C@@H]1NCCOc2ccccc2C=CCNC(=O)[C@H](Cc2cccs2)NC(=O)C2(CCCC2)NC1=O (stereo in doubt)", "Ki": "100 to 1000 nM"}
{"molecule": "CC(C)C[C@@H]1NCCOc2ccccc2/C=C/CNC(=O)C2(CCCC2)NC(=O)C2(CCCC2)NC1=O", "Ki": "100 to 1000 nM"}
{"molecule": "CCC(C)C1NCCc2ccccc2CCCCNC(=O)C(Cc2ccccc2)NC(=O)C(C)N(C)C1=O (single isomer, unassigned) [189a]", "Ki": "100 to 1000 nM"}
{"molecule": "CC[C@H](C)[C@@H]1NCCOc2ccccc2CCCNC(=O)[C@@H](CCc2ccccc2)NC(=O)[C@@H](C)N(C)C1=O", "Ki": "10 to 100 nM"}
{"molecule": "CCC1NC(=O)C(C)N(C)C(=O)C(C(C)CC)NCCOc2ccccc2CCCNC1=O (stereo not drawn)", "Ki": "> 10000 nM"}
{"molecule": "CCC(C)C1NCc2ccccc2CCCCNC(=O)C(Cc2ccccc2)NC(=O)C(C)N(C)C1=O (single isomer, unassigned) [194a]", "Ki": "100 to 1000 nM"}
{"molecule": "CC(C)C1NCCOc2ccccc2C=CCNC(=O)C(Cc2ccccc2)NC(=O)C2(CCNCC2)NC1=O (stereo in doubt)", "Ki": "> 1000 nM"}
{"molecule": "CC(C)[C@@H]1NCCOc2ccccc2C=CCNC(=O)[C@H](Cc2ccccc2)NC(=O)C2(CC2)NC1=O (stereo in doubt)", "Ki": "100 to 1000 nM"}
{"molecule": "CCC(C)C1NC(=O)C2(CCCC2)NC(=O)C(CC(C)C)NCCOc2ccccc2C=CCNC1=O (stereo not drawn) [compound 166]", "Ki": "> 10000 nM"}
{"molecule": "CC[C@H](C)[C@@H]1NCCOc2ccccc2CCCNC(=O)[C@@H](C(C)C)NC(=O)[C@@H](C)N(C)C1=O", "Ki": "100 to 1000 nM"}
